Here, each record is paired with measured abundance fitness data.
B1: Cytoplasmic polyadenylation element-binding protein 2, residues 513 to 575; numbered along this chain, Q7Z5Q1 (parent)
chain: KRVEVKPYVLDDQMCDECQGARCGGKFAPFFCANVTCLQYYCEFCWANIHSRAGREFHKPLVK

- Variants of: B1
- protocol.description: abundance fitness (aPCA) (normalised: wild type 0, dead -1); higher = more abundant; growth selection in yeast, the domain comes from the species named
- condition: Homo sapiens
result.type: abundance fitness

variant.label: F27Q
observed: -0.045
//
variant.label: K1T
observed: -0.036
//
variant.label: A21M
observed: -0.22
//
variant.label: H50K
observed: -0.673
//
variant.label: K1D
observed: -0.01
//
variant.label: C37W
observed: -0.952
//
variant.label: R52N
observed: 0.004
//
variant.label: K1G
observed: -0.218
//
variant.label: D11N
observed: -0.028
//
variant.label: L61C
observed: 0.091
//
variant.label: R55F
observed: 0.035
//
variant.label: V3R
observed: -0.1
//
variant.label: E43D
observed: -0.049
//
variant.label: A33H
observed: -0.177
//
variant.label: E56N
observed: -0.111
//
variant.label: K1E
observed: 0.038
//
variant.label: H58V
observed: -0.704
//
variant.label: E17W
observed: -0.25
//
variant.label: L38Y
observed: 0.174
//
variant.label: C32P
observed: -0.737
//
variant.label: K6D
observed: 0.029
//
variant.label: P60T
observed: -0.558
//
variant.label: P7W
observed: -0.622
//
variant.label: L38G
observed: -0.006
//
variant.label: A33K
observed: -0.147
//
variant.label: Q39A
observed: 0.1
//
variant.label: T36F
observed: -0.312
//
variant.label: K6R
observed: -0.128
//
variant.label: K26S
observed: -0.079
//
variant.label: D16N
observed: 0.253
//
variant.label: P60C
observed: -0.154
//
variant.label: R55A
observed: -0.03
//
variant.label: Q19P
observed: -0.579
//
variant.label: K1M
observed: -0.184
//
variant.label: N34G
observed: -0.106
//
variant.label: F31G
observed: -0.685
//
variant.label: C32E
observed: -0.683
//
variant.label: A33E
observed: 0.077
//
variant.label: D16E
observed: 0.047
//
variant.label: E17R
observed: -0.059
//
variant.label: N34M
observed: -0.44
//
variant.label: H50R
observed: -0.775
//
variant.label: R22T
observed: -0.283
//
variant.label: K59Q
observed: -0.076
//
variant.label: A53D
observed: 0.02
//
variant.label: F44M
observed: -0.145
//
variant.label: C42W
observed: -1.29
//
variant.label: K63Y
observed: -0.408
//
variant.label: E43L
observed: -0.395
//
variant.label: F44A
observed: 0.05
//
variant.label: C42P
observed: -0.826
//
variant.label: N34W
observed: -0.2
//
variant.label: C18T
observed: -0.643
//
variant.label: C37D
observed: -0.766
//
variant.label: Q13W
observed: -0.372
//
variant.label: K63H
observed: -0.014
//
variant.label: L61H
observed: -0.048
//
variant.label: C37A
observed: -0.82
//
variant.label: D12Y
observed: -0.273
//
variant.label: V5I
observed: -0.113
//
variant.label: T36S
observed: -0.011
//
variant.label: L38R
observed: 0.056
//
variant.label: K59A
observed: -0.118
//
variant.label: K59N
observed: -0.248
//
variant.label: A21F
observed: -0.23
//
variant.label: V9C
observed: -0.002
//
variant.label: E17V
observed: -0.061
//
variant.label: L10T
observed: 0.045
//
variant.label: Y8M
observed: -0.365
//
variant.label: D11Y
observed: -0.112
//
variant.label: Y41T
observed: -0.329
//
variant.label: F30V
observed: -0.219
//
variant.label: Y40W
observed: -0.059
//
variant.label: N34L
observed: -1.24
//
variant.label: P7V
observed: -0.735
//
variant.label: C32R
observed: -0.739
//
variant.label: P29W
observed: -0.293
//
variant.label: C18F
observed: -0.954
//
variant.label: E17S
observed: -0.051
//
variant.label: G54V
observed: -0.32
//
variant.label: T36I
observed: -0.09
//
variant.label: E43N
observed: -0.05
//
variant.label: Y8C
observed: -0.115
//
variant.label: G25D
observed: -0.082
//
variant.label: Q13F
observed: -0.229
//
variant.label: H50G
observed: -0.637
//
variant.label: A47D
observed: 0.102
//
variant.label: K6Y
observed: -0.382
//
variant.label: V5W
observed: -0.247
//
variant.label: T36N
observed: -0.024
//
variant.label: H50Y
observed: -0.806

Source of measurements: the Human Domainome abundance scans (Beltran et al. 2025)
